# maps each entry to its MTD
TEST: Maximum single tolerable intravenous dose in rats
ASSAY_CONTEXT: both sexes, rat, in vivo, highest dose without clinical signs in 4 animals, read-out: Rat MTD (i.v.)
Numbers only here, please. The scale is mg/kg.

1. CN1CCN(CCC(=O)Nc2ccc3c(c2)Cc2cccc(-c4cc(=O)cc(N5CCOCC5)o4)c2S3)CC1	40

Let us examine a further case.
Req: Recorded MTD of CN1CCN(CCC(=O)Nc2ccc3c(c2)Sc2cccc(-c4cc(=O)cc(N5CCOCC5)o4)c2S3)CC1 , please.
Resp: 75

---

TEST: Tissue pharmacokinetics, plasma and tumour concentrations
Format: in vivo
ASSAY_CONTEXT: mouse, plasma, ip; mice; 50 mg/kg i.p.; 4 hr post-dose; mean; read-out: Plasma concentration
# maps each entry to its concentration at 4 h
Numbers only here, please. The scale is ng/mL.

Answered cases to consult:
1. CC(C)N1CCN(CCC(=O)Nc2ccc3c(c2)Sc2cccc(-c4cc(=O)cc(N5CCOCC5)o4)c2S3)CC1 [Compound (IV)]	383
2. CN1CCN(CCC(=O)Nc2ccc3c(c2)Cc2cccc(-c4cc(=O)cc(N5CCOCC5)o4)c2S3)CC1 [Compound (II)]	137
3. CN1CCN(CCC(=O)Nc2ccc3c(c2)Sc2cccc(-c4cc(=O)cc(N5CCOCC5)o4)c2S3)CC1 [Compound (III)]	626

Req: Recorded concentration at 4 h of C[C@@H]1CN(CC(=O)Nc2ccc3c(c2)Cc2cccc(-c4cc(=O)cc(N5CCOCC5)o4)c2S3)C[C@H](C)O1 [Compound (Ia)] , please.
Resp: 5960

---

# maps each entry to its concentration at 1 h
TEST: Tissue pharmacokinetics, plasma and tumour concentrations
Format: in vivo
ASSAY_CONTEXT: mouse, plasma, ip; mice; 50 mg/kg i.p.; 1 hr post-dose; mean; read-out: Plasma concentration
The reply should read as a number followed by its unit.

1. CN1CCN(CCC(=O)Nc2ccc3c(c2)Cc2cccc(-c4cc(=O)cc(N5CCOCC5)o4)c2S3)CC1	3030 ng/mL
2. C[C@@H]1CN(CC(=O)Nc2ccc3c(c2)Cc2cccc(-c4cc(=O)cc(N5CCOCC5)o4)c2S3)C[C@H](C)O1	31800 ng/mL
3. CN1CCN(CCC(=O)Nc2ccc3c(c2)Sc2cccc(-c4cc(=O)cc(N5CCOCC5)o4)c2S3)CC1	2030 ng/mL

Let us examine a further case.
Req: Recorded concentration at 1 h of CC(C)N1CCN(CCC(=O)Nc2ccc3c(c2)Sc2cccc(-c4cc(=O)cc(N5CCOCC5)o4)c2S3)CC1 , please.
Resp: 1920 ng/mL

---

TEST: Tissue pharmacokinetics, plasma and tumour concentrations
Type: in vivo
ASSAY_CONTEXT: mouse, tumour, ip; mice; 50 mg/kg i.p.; 4 hr post-dose; mean; read-out: Tumour concentration
MEASURE_NAME: concentration at 4 h (ng/g)
Numbers only here, please. The scale is ng/g.

1. CC(C)N1CCN(CCC(=O)Nc2ccc3c(c2)Sc2cccc(-c4cc(=O)cc(N5CCOCC5)o4)c2S3)CC1 [Compound (IV)]	1090
2. C[C@@H]1CN(CC(=O)Nc2ccc3c(c2)Cc2cccc(-c4cc(=O)cc(N5CCOCC5)o4)c2S3)C[C@H](C)O1 [Compound (Ia)]	4140
3. CN1CCN(CCC(=O)Nc2ccc3c(c2)Sc2cccc(-c4cc(=O)cc(N5CCOCC5)o4)c2S3)CC1 [Compound (III)]	2190

Let us examine a further case.
Req: Recorded concentration at 4 h of CN1CCN(CCC(=O)Nc2ccc3c(c2)Cc2cccc(-c4cc(=O)cc(N5CCOCC5)o4)c2S3)CC1 [Compound (II)] , please.
Resp: 1060

---

TEST: Tissue pharmacokinetics, plasma and tumour concentrations
Format: in vivo
ASSAY_CONTEXT: mouse, tumour, ip; mice; 50 mg/kg i.p.; 1 hr post-dose; mean; read-out: Tumour concentration
MEASURE_NAME: concentration at 1 h (ng/g)
Numbers only here, please. The scale is ng/g.

Answered cases to consult:
1. CN1CCN(CCC(=O)Nc2ccc3c(c2)Cc2cccc(-c4cc(=O)cc(N5CCOCC5)o4)c2S3)CC1	2810
2. CN1CCN(CCC(=O)Nc2ccc3c(c2)Sc2cccc(-c4cc(=O)cc(N5CCOCC5)o4)c2S3)CC1	1730

Req: Recorded concentration at 1 h of C[C@@H]1CN(CC(=O)Nc2ccc3c(c2)Cc2cccc(-c4cc(=O)cc(N5CCOCC5)o4)c2S3)C[C@H](C)O1 , please.
Resp: 19700

Req: Recorded concentration at 1 h of CC(C)N1CCN(CCC(=O)Nc2ccc3c(c2)Sc2cccc(-c4cc(=O)cc(N5CCOCC5)o4)c2S3)CC1 , please.
Resp: 899

---

TEST: Oral bioavailability in mice
Type: in vivo
ASSAY_CONTEXT: mouse, plasma, 10 mg/kg oral vs intravenous, AUC ratio
# maps each entry to its bioavailability
The reply should read as a number followed by its unit.

1) CN1CCN(CCC(=O)Nc2ccc3c(c2)Cc2cccc(-c4cc(=O)cc(N5CCOCC5)o4)c2S3)CC1	0%
2) CC(C)N1CCN(CCC(=O)Nc2ccc3c(c2)Sc2cccc(-c4cc(=O)cc(N5CCOCC5)o4)c2S3)CC1	0%

Req: Recorded bioavailability of CN1CCN(CCC(=O)Nc2ccc3c(c2)Sc2cccc(-c4cc(=O)cc(N5CCOCC5)o4)c2S3)CC1 , please.
Resp: 0%

Req: Recorded bioavailability of C[C@@H]1CN(CC(=O)Nc2ccc3c(c2)Cc2cccc(-c4cc(=O)cc(N5CCOCC5)o4)c2S3)C[C@H](C)O1 , please.
Resp: 37%
